Form field: LC50 (concentration causing 50% net cell kill) (one value per entry).
# Test system: DU-145
# test.name: SRB colorimetric assay of cell growth and viability, DU-145
# Type: cell-based, human
# condition.set: 48 hours exposure
Give just the numeric value; nM need not be written.

compound	reading
C/C=C1\NC(=O)[C@H](Cc2ccccc2)NC(=O)[C@@H](C(C)C)NC(=O)[C@@H]([C@@H](C)CC)NC(=O)[C@H](NC(=O)[C@H](NC(=O)[C@H](CCCN)NC(=O)[C@H]2CCCN2C(=O)[C@H](NC(=O)[C@@H](NC(=O)[C@@H](NC(=O)[C@H](NC(=O)CCCCC(C)(F)F)C(C)C)[C@@H](C)O)C(C)C)C(C)C)[C@@H](C)CC)[C@@H](C)OC(=O)[C@H](C(C)C)NC1=O [Compound 28, [6,6-dFHep^14]-KF]	2090

Field: next compound
Problem: I'd like to know its LC50 (concentration causing 50% net cell kill). The compound in question is C/C=C1\NC(=O)[C@H](Cc2ccccc2)NC(=O)[C@@H](C(C)C)NC(=O)[C@@H]([C@@H](C)CC)NC(=O)[C@H](NC(=O)[C@H](NC(=O)[C@H](CCCN)NC(=O)[C@H]2CCCN2C(=O)[C@H](NC(=O)[C@@H](NC(=O)[C@@H](NC(=O)[C@H]2CCCN2C(=O)CCCC(C)C)[C@@H](C)O)C(C)C)C(C)C)[C@@H](C)CC)[C@@H](C)OC(=O)[C@H](C(C)C)NC1=O [Compound 37, [D-Pro^13]-KF]
Result: 1960
